Ref: the Deep4Chem optical property database

- TEST SUMMARY: solvent given as SMILES
- CONDITION PARAMETERS: in ClCCl
MEASURED PROPERTY: emission maximum (nm)

[[record]]
structure = "COc1ccc(-c2cnc(-c3ccccc3)o2)cc1OC"
measured_property = "emission maximum"
recorded_value = 400

[[record]]
structure = "N#Cc1ccc(N(c2ccccc2)c2ccc3ccc4c(N(c5ccccc5)c5ccc(C#N)cc5)ccc5ccc2c3c54)cc1"
measured_property = "emission maximum"
recorded_value = 454

[[record]]
structure = "CN(C)c1ccc(-c2cc3c(s2)c(C(=O)c2ccccc2)cc(=O)n3Cc2ccccc2)cc1"
measured_property = "emission maximum"
recorded_value = 678

[[record]]
structure = "Cc1cc(-c2ccc(C(C)(C)C)cc2)c2nsnc2c1-c1ccc(C(C)(C)C)cc1"
measured_property = "emission maximum"
recorded_value = 489

[[record]]
structure = "CC(C)(C)c1ccc2c(c1)c1cc(C(C)(C)C)ccc1n2-c1ccc(-c2nc(-c3ccccc3)nc(-c3ccccc3)n2)c2c1c1ccccc1n2-c1ccccc1"
measured_property = "emission maximum"
recorded_value = 474.77

[[record]]
structure = "CN(C)c1ccc(/C=C/c2ncnc3ccccc23)cc1"
measured_property = "emission maximum"
recorded_value = 548

[[record]]
structure = "Cc1ccccc1-c1c2ccc(=[N+]3CCOCC3)cc-2oc2cc(N3CCOCC3)ccc12"
measured_property = "emission maximum"
recorded_value = 575

[[record]]
structure = "CN(C)c1cc(-c2ccccc2)cc2ccccc12"
measured_property = "emission maximum"
recorded_value = 422

[[record]]
structure = "O=C1c2ccccc2-c2ccc(N3CCOCC3)c3cccc1c23"
measured_property = "emission maximum"
recorded_value = 625

[[record]]
structure = "O=P(c1ccccc1)(c1ccccc1)n1c2ccccc2c2ccccc21"
measured_property = "emission maximum"
recorded_value = 355

[[record]]
structure = "C(#Cc1c(C#Cc2ccccc2)c(C#Cc2ccccc2)c(C#Cc2ccccc2)c(C#Cc2ccccc2)c1C#Cc1ccccc1)c1ccccc1"
measured_property = "emission maximum"
recorded_value = 452

[[record]]
structure = "CC(C)(C)c1ccc(C2=c3c(c4ccc(C(C)(C)C)cc4c4cc(C(C)(C)C)ccc34)=[N+]3C2=C(c2ccccc2)c2c(-c4ccc(C(C)(C)C)cc4)c4c5ccc(C(C)(C)C)cc5c5cc(C(C)(C)C)ccc5c4n2[B-]3(F)F)cc1"
measured_property = "emission maximum"
recorded_value = 712

[[record]]
structure = "CC(C)(C)c1ccc(-c2cc3c(-c4ccc(C(C)(C)C)cc4)c4cccc5c(-c6ccc(C(C)(C)C)cc6)cc6c(-c7ccc(C(C)(C)C)cc7)c7cccc2c7c3c6c54)cc1"
measured_property = "emission maximum"
recorded_value = 467

[[record]]
structure = "Cc1ccc2nc(/C=C/c3ccc(N(C)C)cc3)c(-c3ccccc3)nc2c1"
measured_property = "emission maximum"
recorded_value = 571

[[record]]
structure = "C=CCNc1ccc2c(ccc3oc4cc(=[N+](C)C)ccc-4nc32)c1"
measured_property = "emission maximum"
recorded_value = 645

[[record]]
structure = "CC(C)(C)c1ccc(-c2cc3c4c(c2)CCc2cc(-c5ccc(C(C)(C)C)cc5)cc(c2-4)CC3)cc1"
measured_property = "emission maximum"
recorded_value = 386.36

[[record]]
structure = "COC(=O)c1[nH]c(-c2ccccc2)c2nnc3ccsc3c12"
measured_property = "emission maximum"
recorded_value = 478

[[record]]
structure = "COC(=O)c1ccc(C2=C(/C=C/c3ccc(OC)cc3)O[B-](F)(F)[O+]=C2/C=C/c2ccc(OC)cc2)cc1"
measured_property = "emission maximum"
recorded_value = 557

[[record]]
structure = "Oc1ccc2ccccc2c1-c1nc2c(c3c1-c1ccccc1CC3)-c1ccccc1CC2"
measured_property = "emission maximum"
recorded_value = 405

